Biological target: GST-Nv-NF-kB (Cys allele) (Nematostella vectensis, UniProt E5G601 2-411)
Sequence: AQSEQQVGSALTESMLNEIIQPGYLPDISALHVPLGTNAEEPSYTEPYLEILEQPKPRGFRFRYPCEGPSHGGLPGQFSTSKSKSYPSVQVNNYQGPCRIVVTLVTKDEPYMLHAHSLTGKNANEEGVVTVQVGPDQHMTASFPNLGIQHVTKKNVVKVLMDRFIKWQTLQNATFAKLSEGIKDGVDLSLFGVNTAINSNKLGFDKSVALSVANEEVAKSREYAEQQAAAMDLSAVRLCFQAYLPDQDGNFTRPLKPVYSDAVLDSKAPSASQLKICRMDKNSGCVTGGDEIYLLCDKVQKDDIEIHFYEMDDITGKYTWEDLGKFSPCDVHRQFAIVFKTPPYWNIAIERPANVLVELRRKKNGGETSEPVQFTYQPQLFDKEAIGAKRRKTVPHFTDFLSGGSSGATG
Assay: protein-binding microarray (PBM); PBM: ~300 nM protein, 6 mM HEPES pH 7.8, 80 mM KCl, 0.5 mM EDTA, 0.5 mM EGTA, 6% glycerol, 35 ng/ul poly-dIdC, 1% milk, 1 h, room temperature; high values mean tight binding
Settings: dsDNA, one strand shown
endpoint: binding signal
Returns: string containing the number followed by the unit.

# count of solved cases: 2
INSERT INTO measurements (sequence_content, value_reported) VALUES
  ('CCGATTAACATCACGGATTCCCCTGATGTTAATCGGGTCTTGATTCGCTTGACGCTGCTG', '9.07 z-score'),
  ('CCGATTAACATCAGGAACCCCCCTGATGTTAATCGGGTCTTGATTCGCTTGACGCTGCTG', '6.2 z-score');

Query: Endpoint output: binding signal of `CCGATTAACATCAGTATTCCCCATGATGTTAATCGGGTCTTGATTCGCTTGACGCTGCTG` . Value?
Result: 7.73 z-score

Query: Again, but for `CCGATTAACATCAATATTCCCCATGATGTTAATCGGGTCTTGATTCGCTTGACGCTGCTG`
Result: 8.39 z-score

Query: Again, but for `CCGATTAACATCATTAGGGTATTTGATGTTAATCGGGTCTTGATTCGCTTGACGCTGCTG`
Result: 3.98 z-score

Query: Again, but for `CCGATTAACATCAGGGCATTACCTGATGTTAATCGGGTCTTGATTCGCTTGACGCTGCTG`
Result: 1.87 z-score

Query: Again, but for `CCGATTAACATCACGGAAATCCCTGATGTTAATCGGGTCTTGATTCGCTTGACGCTGCTG`
Result: 3.8 z-score

Query: Again, but for `CCGATTAACATCAGGCCATCCCCTGATGTTAATCGGGTCTTGATTCGCTTGACGCTGCTG`
Result: 4.02 z-score

Query: Again, but for `CCGATTAACATCAGGGAATTCGATGATGTTAATCGGGTCTTGATTCGCTTGACGCTGCTG`
Result: 3.99 z-score

Query: Again, but for `CCGATTAACATCAGAAATACCCCTGATGTTAATCGGGTCTTGATTCGCTTGACGCTGCTG`
Result: 6.99 z-score

Query: Again, but for `CCGATTAACATCACGGGAATCCCTGATGTTAATCGGGTCTTGATTCGCTTGACGCTGCTG`
Result: 5.96 z-score

Query: Again, but for `CCGATTAACATCAGGGAAAATCATGATGTTAATCGGGTCTTGATTCGCTTGACGCTGCTG`
Result: 5.72 z-score

----------
Biological target: GST-Hu-p50 (Homo sapiens, UniProt P19838 7-356)
Sequence (P19838 7-356): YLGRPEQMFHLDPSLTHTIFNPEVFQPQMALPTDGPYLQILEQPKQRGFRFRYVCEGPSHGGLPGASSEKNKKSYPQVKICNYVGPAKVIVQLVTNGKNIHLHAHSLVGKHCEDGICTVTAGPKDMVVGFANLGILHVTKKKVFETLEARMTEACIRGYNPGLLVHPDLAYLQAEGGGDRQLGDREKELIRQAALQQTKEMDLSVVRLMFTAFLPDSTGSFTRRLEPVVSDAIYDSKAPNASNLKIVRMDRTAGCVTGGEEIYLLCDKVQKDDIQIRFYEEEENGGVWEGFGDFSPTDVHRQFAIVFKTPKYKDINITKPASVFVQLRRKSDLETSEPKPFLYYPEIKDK
Experiment: protein-binding microarray (PBM); PBM: ~300 nM protein, 6 mM HEPES pH 7.8, 80 mM KCl, 0.5 mM EDTA, 0.5 mM EGTA, 6% glycerol, 35 ng/ul poly-dIdC, 1% milk, 1 h, room temperature; high values mean tight binding
Details: dsDNA, one strand shown
endpoint: binding signal (z-score)
State just the number; it will be interpreted in z-score.

# count of solved cases: 6
INSERT INTO measurements (sequence_content, experimental_system, endpoint, unit_annotation, value_reported) VALUES
  ('CCGATTAACATCAGCAATCCCCCTGATGTTAATCGGGTCTTGATTCGCTTGACGCTGCTG', 'GST-Hu-p50 (Homo sapiens, UniProt P19838 7-356)', 'binding signal', 'z-score', 6.73),
  ('CCGATTAACATCAGGGGAAAGTATGATGTTAATCGGGTCTTGATTCGCTTGACGCTGCTG', 'GST-Hu-p50 (Homo sapiens, UniProt P19838 7-356)', 'binding signal', 'z-score', 5.75),
  ('CCGATTAACATCAATTCCCATCCTGATGTTAATCGGGTCTTGATTCGCTTGACGCTGCTG', 'GST-Hu-p50 (Homo sapiens, UniProt P19838 7-356)', 'binding signal', 'z-score', 1.57),
  ('CCGATTAACATCAGGGGATTTACTGATGTTAATCGGGTCTTGATTCGCTTGACGCTGCTG', 'GST-Hu-p50 (Homo sapiens, UniProt P19838 7-356)', 'binding signal', 'z-score', 7.61),
  ('CCGATTAACATCAATTTCCCAGGTGATGTTAATCGGGTCTTGATTCGCTTGACGCTGCTG', 'GST-Hu-p50 (Homo sapiens, UniProt P19838 7-356)', 'binding signal', 'z-score', 3.21),
  ('CCGATTAACATCAGGGGGAGCACTGATGTTAATCGGGTCTTGATTCGCTTGACGCTGCTG', 'GST-Hu-p50 (Homo sapiens, UniProt P19838 7-356)', 'binding signal', 'z-score', 4.89);

Query: Endpoint output: binding signal of `CCGATTAACATCAGGGGGGTGCATGATGTTAATCGGGTCTTGATTCGCTTGACGCTGCTG` . Value?
Result: 3.86

Query: Again, but for `CCGATTAACATCAGGGGAAAAAATGATGTTAATCGGGTCTTGATTCGCTTGACGCTGCTG`
Result: 6.22

Query: Again, but for `CCGATTAACATCAGGGGGGAGAATGATGTTAATCGGGTCTTGATTCGCTTGACGCTGCTG`
Result: 6.41

----------
Target: GST-Aq-NF-kB (Amphimedon queenslandica, UniProt A9Y5G7 2-389)
Sequence: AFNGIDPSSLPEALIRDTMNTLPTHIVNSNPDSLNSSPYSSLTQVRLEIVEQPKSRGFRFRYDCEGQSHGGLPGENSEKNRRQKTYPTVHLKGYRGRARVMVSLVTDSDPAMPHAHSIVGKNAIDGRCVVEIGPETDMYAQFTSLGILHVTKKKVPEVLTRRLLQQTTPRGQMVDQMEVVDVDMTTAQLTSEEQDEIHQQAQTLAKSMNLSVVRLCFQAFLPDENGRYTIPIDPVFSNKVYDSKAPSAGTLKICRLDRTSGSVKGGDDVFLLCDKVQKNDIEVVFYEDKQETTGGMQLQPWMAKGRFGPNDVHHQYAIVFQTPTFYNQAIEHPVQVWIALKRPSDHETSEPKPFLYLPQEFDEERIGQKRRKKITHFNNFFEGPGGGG
Assay: protein-binding microarray (PBM); PBM: ~300 nM protein, 6 mM HEPES pH 7.8, 80 mM KCl, 0.5 mM EDTA, 0.5 mM EGTA, 6% glycerol, 35 ng/ul poly-dIdC, 1% milk, 1 h, room temperature; Ap Aiptasia and Nv Nematostella (sea anemones) / Co Capsaspora / Aq Amphimedon (sponge) / Dm Drosophila / Hu human; RHD is the Rel homology domain; high values mean tight binding
Conditions: dsDNA, one strand shown
For each record, check the reported binding signal: if it is below 5 z-score write satisfied, else write not satisfied.

Some entries whose results are on file:
INSERT INTO assay_data (sequence_content, cat) VALUES
  ('CCGATTAACATCAGAGCTTCCCCTGATGTTAATCGGGTCTTGATTCGCTTGACGCTGCTG', 'satisfied'),
  ('CCGATTAACATCAGGAATTACCATGATGTTAATCGGGTCTTGATTCGCTTGACGCTGCTG', 'satisfied'),
  ('CCGATTAACATCAGGGGGGATTATGATGTTAATCGGGTCTTGATTCGCTTGACGCTGCTG', 'not satisfied'),
  ('CCGATTAACATCAATACACCCCCTGATGTTAATCGGGTCTTGATTCGCTTGACGCTGCTG', 'satisfied');

Query: Find out if reported binding signal for `CCGATTAACATCATTCGGGAAAATGATGTTAATCGGGTCTTGATTCGCTTGACGCTGCTG` is less than 5 z-score
Result: satisfied

Query: Again, but for `CCGATTAACATCAAGGGGGTACTTGATGTTAATCGGGTCTTGATTCGCTTGACGCTGCTG`
Result: satisfied

Query: Again, but for `CCGATTAACATCAAGGGAATTTCTGATGTTAATCGGGTCTTGATTCGCTTGACGCTGCTG`
Result: not satisfied
